src = ChEMBL document CHEMBL5034006

# Assay procedure: Intrinsic clearance in human liver microsomes assessed per mg protein by LC-MS/MS analysis
# Assay type: ADME, Microsome
Endpoint label: CLint

Reference set, count: 4
**Q:** Item under review: Cn1cc(-c2cnc3[nH]cc(C4CCCN(C(=O)OC(C)(C)C)C4)c3c2)cn1 (stereo not given) . Reported CLint?
**A:** > 300 µL/min/mg

**Q:** Likewise for N#Cc1cccc(-c2c[nH]c3ncc(-c4cnn(C5CCNCC5)c4)cc23)c1 ?
**A:** < 3 µL/min/mg

**Q:** Likewise for Cn1cc(-c2cnc3[nH]ccc3c2)cn1 ?
**A:** > 300 µL/min/mg

**Q:** Likewise for Cn1cc(-c2cnc3[nH]cc(C4CCNC4)c3c2)cn1 (stereo not given) ?
**A:** < 3 µL/min/mg

Further cases:
**Q:** Item under review: COc1cccc(-c2c[nH]c3ncc(-c4cnn(C)c4)cc23)c1 . Reported CLint?
**A:** > 300 µL/min/mg
